Here, each record is paired with measured kon data.
# Tested On: T1, human CD22-ECD-His protein (human, UniProt P20273 20-687)
# T1 construct: Recombinant, from HEK293E cells; also called hCD22-ECD-His; human CD22-His protein; not shown: His tag
# T1 sequence: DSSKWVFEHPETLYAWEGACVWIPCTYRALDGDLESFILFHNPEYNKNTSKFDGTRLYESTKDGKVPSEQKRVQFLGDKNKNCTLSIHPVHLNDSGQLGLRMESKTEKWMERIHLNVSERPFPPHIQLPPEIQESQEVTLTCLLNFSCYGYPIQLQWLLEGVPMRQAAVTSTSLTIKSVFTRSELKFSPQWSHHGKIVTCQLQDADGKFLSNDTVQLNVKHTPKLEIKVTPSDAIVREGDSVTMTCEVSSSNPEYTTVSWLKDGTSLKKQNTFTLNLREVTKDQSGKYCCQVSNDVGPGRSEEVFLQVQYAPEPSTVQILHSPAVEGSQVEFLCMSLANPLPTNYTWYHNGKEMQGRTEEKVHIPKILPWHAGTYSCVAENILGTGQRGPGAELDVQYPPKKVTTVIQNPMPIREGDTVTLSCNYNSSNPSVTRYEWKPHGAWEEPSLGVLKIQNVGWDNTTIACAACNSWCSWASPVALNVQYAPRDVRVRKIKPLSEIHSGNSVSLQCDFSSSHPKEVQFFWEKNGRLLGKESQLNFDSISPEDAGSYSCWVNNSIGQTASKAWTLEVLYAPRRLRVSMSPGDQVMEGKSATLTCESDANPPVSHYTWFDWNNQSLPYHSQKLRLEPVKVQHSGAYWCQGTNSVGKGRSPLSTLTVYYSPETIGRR
# Assay Remarks: SPR (Biacore), antibody captured on Protein A chip, CD22-ECD-His in solution
Hi! Could you send only the number? It should be in M⁻¹ s⁻¹, unit omitted.

// worked examples, kon included
Binder | Measured Metric | Assay Value
F1.280.1 (antibody, human IgG1, kappa, V domains shown, Chimeric IgG1 kappa) VH: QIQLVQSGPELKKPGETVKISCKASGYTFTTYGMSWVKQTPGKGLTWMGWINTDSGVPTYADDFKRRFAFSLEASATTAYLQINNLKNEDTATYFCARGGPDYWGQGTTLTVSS VL: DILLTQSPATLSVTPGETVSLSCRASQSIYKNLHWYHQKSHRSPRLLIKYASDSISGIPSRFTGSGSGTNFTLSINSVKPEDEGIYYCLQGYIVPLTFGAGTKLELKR | kon | 62900
F1.200.11 (antibody, human IgG1, kappa, V domains shown, Chimeric IgG1 kappa) VH: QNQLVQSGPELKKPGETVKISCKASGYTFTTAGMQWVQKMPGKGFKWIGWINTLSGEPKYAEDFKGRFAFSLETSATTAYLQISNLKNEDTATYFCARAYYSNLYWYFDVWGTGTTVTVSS VL: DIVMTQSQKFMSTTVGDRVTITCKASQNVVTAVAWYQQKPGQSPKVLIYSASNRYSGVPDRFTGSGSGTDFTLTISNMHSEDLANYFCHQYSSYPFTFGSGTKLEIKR | kon | 9980
F2.99.1 (antibody, human IgG1, lambda, V domains shown, Chimeric IgG1 lambda) VH: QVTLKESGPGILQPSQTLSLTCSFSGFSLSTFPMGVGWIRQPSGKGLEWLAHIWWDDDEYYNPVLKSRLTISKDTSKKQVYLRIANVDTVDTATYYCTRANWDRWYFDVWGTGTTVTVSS VL: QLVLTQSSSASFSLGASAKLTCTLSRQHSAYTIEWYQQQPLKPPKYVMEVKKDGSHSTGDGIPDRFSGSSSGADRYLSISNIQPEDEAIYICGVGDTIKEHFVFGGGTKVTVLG | kon | 105000
F1.161.7 (antibody, human IgG1, kappa, V domains shown, Chimeric IgG1 kappa) VH: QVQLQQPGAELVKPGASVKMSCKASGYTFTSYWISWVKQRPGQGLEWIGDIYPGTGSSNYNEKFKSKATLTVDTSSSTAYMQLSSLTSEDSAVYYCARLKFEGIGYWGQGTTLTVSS VL: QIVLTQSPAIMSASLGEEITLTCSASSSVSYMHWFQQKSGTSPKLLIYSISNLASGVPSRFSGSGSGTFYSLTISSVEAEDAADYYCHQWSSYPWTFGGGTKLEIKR | kon | 201000

Please turn your attention to the following entry.
Query: What value of kon has been reported for the following binder? F1.105.11 (antibody, human IgG1, kappa, V domains shown, Chimeric IgG1 kappa) VH: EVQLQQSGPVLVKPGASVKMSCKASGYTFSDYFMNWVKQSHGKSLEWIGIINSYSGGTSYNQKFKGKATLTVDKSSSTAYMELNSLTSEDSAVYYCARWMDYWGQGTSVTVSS VL: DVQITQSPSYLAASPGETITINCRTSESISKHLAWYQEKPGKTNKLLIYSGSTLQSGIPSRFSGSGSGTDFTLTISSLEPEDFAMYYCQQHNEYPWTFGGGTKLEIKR
Result: 299000

Numbers sourced from patent US20240084003A1.
